Molecular target: AHR (Homo sapiens)
Construct: U87 MG glioblastoma cells (ATCC #HTB-14) endogenously expressing AHR; endogenous in cells; host or cells: U87 MG glioblastoma cells (ATCC #HTB-14)
Sequence (P35869 11-848): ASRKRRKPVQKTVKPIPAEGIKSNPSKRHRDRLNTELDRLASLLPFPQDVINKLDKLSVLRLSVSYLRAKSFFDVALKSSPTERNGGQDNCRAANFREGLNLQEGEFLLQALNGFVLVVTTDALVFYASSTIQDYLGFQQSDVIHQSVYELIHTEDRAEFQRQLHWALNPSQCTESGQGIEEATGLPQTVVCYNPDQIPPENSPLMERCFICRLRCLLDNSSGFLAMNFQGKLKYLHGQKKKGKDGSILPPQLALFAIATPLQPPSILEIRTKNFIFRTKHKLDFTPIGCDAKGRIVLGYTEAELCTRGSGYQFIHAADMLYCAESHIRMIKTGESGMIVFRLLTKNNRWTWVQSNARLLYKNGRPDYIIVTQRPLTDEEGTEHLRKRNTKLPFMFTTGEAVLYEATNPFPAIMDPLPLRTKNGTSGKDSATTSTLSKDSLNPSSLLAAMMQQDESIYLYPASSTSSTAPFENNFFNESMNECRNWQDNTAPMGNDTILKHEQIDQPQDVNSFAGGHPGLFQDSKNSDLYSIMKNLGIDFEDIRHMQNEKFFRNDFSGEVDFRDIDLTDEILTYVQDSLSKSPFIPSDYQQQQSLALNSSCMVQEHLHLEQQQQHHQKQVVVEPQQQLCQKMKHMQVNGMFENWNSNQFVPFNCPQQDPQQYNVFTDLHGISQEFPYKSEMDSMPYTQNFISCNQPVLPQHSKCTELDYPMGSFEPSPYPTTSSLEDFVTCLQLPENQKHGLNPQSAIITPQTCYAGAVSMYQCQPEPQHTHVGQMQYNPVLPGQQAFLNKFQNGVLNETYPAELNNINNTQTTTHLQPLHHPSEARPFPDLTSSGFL
Assay: In vitro assay 1: antagonism in human cell line (AHR transactivation, firefly luciferase reporter, kynurenic acid prestimulated)
Type: cell-based
Settings: AHR Antagonism Human IC50 [M]
Readout label: IC50 (M)

Observe how each entry below is paired with its result.
Write down the reported IC50 of O=C1NCCCC[C@H]1Nc1nc2c(C(F)(F)F)cccc2c2nc(-c3cc[nH]n3)nn12 , test system: AHR (Homo sapiens).
7.64e-09

Entry Cc1ccccc1-c1nc2c3ccccc3nc(NC3CNCCNC3=O)n2n1 (single isomer, unassigned) [Example 47] , system AHR (Homo sapiens): what IC50 was measured?
1.86e-08

Reported IC50 for AHR (Homo sapiens), given CC[C@@H](Nc1nc2ccccc2c2nc(-c3cccc(C(F)(F)F)n3)nn12)C(N)=O ?
7.24e-08

[1] CCCNC(=O)[C@@H](C)Nc1nc2ccccc2c2nc(-c3ccncc3F)nn12
[2] N#Cc1ccc(-c2nc3c4ccccc4nc(N[C@@H]4CNCCNC4=O)n3n2)cc1
Given the two records 1 and 2 , choose the one whose IC50 value is lower. Please respond with the label that marks your chosen entry.
2
(2: 1.93e-08 M, 1: 3.26e-07 M)

[A] CC[C@@H](Nc1nc2ccccc2c2nc(-c3ccc(Br)cc3OC(F)(F)F)nn12)C(N)=O
[B] CCC[C@@H](Nc1nc2ccccc2c2nc(-c3ccccc3OC(F)F)nn12)C(=O)NC
[C] O=C1NCCCC[C@H]1Nc1nc2ccccc2c2nc(-c3ccc(O)c(F)c3)nn12
[D] O=C1NCC[C@H]1Nc1nc2ccccc2c2nc(-c3ccsc3)nn12
[E] O=C1NCCC[C@H]1Nc1nc2ccccc2c2nc(-c3ccncc3F)nn12
Please produce an ascending ranking of these compounds based on IC50. Sort the labels as requested; that list is your answer.
A, B, C, D, E
(A: 6.22e-09 M, B: 1.81e-08 M, C: 4.88e-08 M, D: 2.21e-07 M, E: 2.23e-06 M)

[I] O=C1NCCCC[C@H]1Nc1nc2ccccc2c2nc(-c3ccncc3)nn12
[II] CC[C@@H](Nc1nc2ccccc2c2nc(-c3cccc(C#N)c3)nn12)C(N)=O
Kindly identify which of I and II has the larger recorded IC50 value. Answer = label.
I
(I: 1.3e-08 M, II: 7.64e-09 M)

[a] COc1ccc(-c2nc3c4ccccc4nc(N[C@H]4CCCCNC4=O)n3n2)c(C(F)(F)F)c1
[b] O=C1NCCC[C@H]1Nc1nc2ccccc2c2nc(-c3ccsc3)nn12
Out of a and b , name the one with the higher IC50. Use the label to indicate which entry you chose.
a
